Just for reference, patent US20260308269 is where these values come from.

Biological target: T1, human TfR apical domain (human)
T1 chain: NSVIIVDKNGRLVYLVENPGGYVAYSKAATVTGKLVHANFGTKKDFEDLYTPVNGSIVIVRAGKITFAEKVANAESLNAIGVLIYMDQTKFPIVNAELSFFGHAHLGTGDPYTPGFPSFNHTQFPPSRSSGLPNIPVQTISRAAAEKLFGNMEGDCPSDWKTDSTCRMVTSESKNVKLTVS
Experiment: SPR

binder	Kd / nM
35.d1.3 (protein) ASTKGPSVFPLAPSSKSTSGGTAALGCLVKDYFPEPVTVSWNSGALTSGVHTFPAVLQSSGLYSLSSVVTVPSSSLGTQTYICNVNHKPSNTKVDKKVEPKSCDKTHTCPPCPAPELLGGPSVFLFPPKPKDTLMISRTPEVTCVVVDVSHEDPEVKFNWYVDGVEVHNAKTKPREEQYNSTYRVVSVLTVLHQDWLNGKEYKCKVSNKALPAPIEKTISKAKGQPREPQVYTLPPSRDELTKNQVSLTCLVKGFYPSDIAVEWESYGTEWSSYKTTPPVLDSDGSFFLYSKLTVTKSEWQQGYVFSCSVMHEALHNHYTQKSLSLSPELQLEESCAEAQDGELDGLWTT	1300
